# METHOD DESCRIPTION: in vitro
# EXPERIMENTAL CONTEXT: human, hela cells, % viability
Rule: viability at 28.5 h, 10 µM below 90% gives Fulfilled. Equal to or above 90% gives Not fulfilled.

Example entries begin here.
COMPOUND	CLASSIFICATION
C=CCn1c(N2CCC(C(=O)NC3CC3)CC2)nc2ccccc21 [CBK283924]	Fulfilled
CCCc1cc(C(=O)N2CCc3sccc3C2C)[nH]n1 (stereo not shown) [CBK283072]	Not fulfilled
O=C(CSc1nc(-c2ccccc2)cc(=O)[nH]1)NCc1ccccc1 [CBK287734]	Fulfilled

Prompt: Lab note: confirm whether the reported viability at 28.5 h, 10 µM for this compound is below 90%, equality not counting. compound: COC(=O)CCc1ccc(S(=O)(=O)N2CCCN(Cc3cc(Cl)cc(Cl)c3)CC2)cc1 [CBK062982]
Completion: Not fulfilled

Prompt: Find out if reported viability at 28.5 h, 10 µM for O=[N+]([O-])c1ccc(CN2CCN(c3nccnc3OCc3cccnc3)CC2)cc1 [CBK083135T] is less than 90%
Completion: Not fulfilled

Prompt: Take the compound COc1ccc2c(c1)nc(SCC(O)c1ccccc1)n2C (stereo not shown) [CBK262508] and say whether its viability at 28.5 h, 10 µM is less than 90%.
Completion: Not fulfilled

====

# METHOD DESCRIPTION: in vitro
# EXPERIMENTAL CONTEXT: human, hela cells, % viability
Listed here are compounds together with their documented viability at 28.5 h, 10 µM.
Your answer should be a plain number; it is taken to be in %.

COMPOUND	ENDPOINT VALUE
Cc1nccn1CC1CCCN(Cc2ccnc3ccccc23)C1 (centres unmarked)	84.7
COCCOc1ncccc1OCc1ccccc1	92.9
CN1CCN(c2ccc(-c3cncc(NC4CCOCC4)n3)cn2)CC1	105

Prompt: I have this compound here, CCOC(=O)c1sc(NS(=O)(=O)c2ccc(-c3ccccc3)cc2)nc1C , and I need its recorded viability at 28.5 h, 10 µM.
Completion: 106

Prompt: Recorded viability at 28.5 h, 10 µM of COc1ccccc1NC(=O)NC(=O)C1CCN(C)CC1 , please.
Completion: 96.6

Prompt: Need viability at 28.5 h, 10 µM, item CC(C)(CN1CCCC1)NC(=O)N1CCN(Cc2cccc(O)c2)CC1
Completion: 86.6

Prompt: Give the measured viability at 28.5 h, 10 µM of CC1=CC(C)C(CN(CCC[N+](C)(C)C)C(=O)Nc2ccccc2)C(C)C1 (centres unmarked) [CBK262507I] .
Completion: 84.3

Prompt: Recorded viability at 28.5 h, 10 µM of COc1cc(-c2cc(C(=O)O)c3c(-c4ccc(C)cc4)n[nH]c3n2)ccc1O , please.
Completion: 83.9

====

# METHOD DESCRIPTION: in vitro
# EXPERIMENTAL CONTEXT: human, hela cells, % viability
MEASURE: viability at 28.5 h, 10 µM (%)
Give the value, in units of %, as a plain number.

COMPOUND	viability at 28.5 h, 10 µM (%)
Fc1ccc(-c2ccc(CNCCCN3CCOCC3)o2)cc1 [CBK278199C]	84.5
N#Cc1cccnc1N1CC2COCCC2(C(=O)N2CCC=C(F)C2)C1 (stereo not shown)	91.5
CC1SC2(C(=O)Nc3ccccc32)N(c2ccc(Oc3ccccc3)cc2)C1=O (stereo not shown)	92.5
CN(C)CC(C)(C)CN1C2CCC1CC(O)(c1ccccc1F)C2 (stereo not shown)	94.4
Cc1ccn(CCNC(=O)c2cc(-c3cccs3)no2)n1	78.9
N=C1NC(=O)/C(=C\c2cccc(C(=O)O)c2)S1	97.6
CCOC(=O)CCNC(=O)/C=C/c1ccc(C(C)C)cc1	102
COc1ccccc1CNC(=O)c1cccc(C)c1[N+](=O)[O-]	87.8
Cc1ccnn1CCNC(=O)CCc1ccc(Cl)cc1	91.1

Please look at the following compound next.
Prompt: Please report the recorded viability at 28.5 h, 10 µM for CN(CCc1ccncc1)C(=O)c1[nH]nc2c1CCCCC2 .
Completion: 96.9
